Test system: ZIKV-induced caspase 3/7 activity in human astrocytes
assay_name: Caspase 3/7 activity assay, ZIKV-infected human astrocytes
Type: cell-based
assay_context: ZIKV-infected human astrocytes
Threshold-based label: Caspase 3 (efficacy, %) Astrocyte under 70% gives Criterion met, Caspase 3 (efficacy, %) Astrocyte not under 70% gives Criterion not met.

molecule: O=C1NC(=O)C(=Cc2ccc(-c3ccc(F)cc3)o2)S1 [CAY10505]
target_or_test_system: ZIKV-induced caspase 3/7 activity in human astrocytes
category_label: Criterion not met
--
molecule: COc1cccc(NC(=O)/C=C/c2ccc(Cl)cc2)c1 [SB-366791]
target_or_test_system: ZIKV-induced caspase 3/7 activity in human astrocytes
category_label: Criterion not met
--
molecule: CN1CC(=O)NC1=NC(=O)Nc1cccc(Cl)c1 [Fenobam]
target_or_test_system: ZIKV-induced caspase 3/7 activity in human astrocytes
category_label: Criterion not met
--
molecule: Cc1cccc(/C=C/c2ccccc2)n1 [SIB 1893]
target_or_test_system: ZIKV-induced caspase 3/7 activity in human astrocytes
category_label: Criterion not met

Q: Field: below-cutoff. Rule: recorded Caspase 3 (efficacy, %) Astrocyte strictly less than 70%. Subject: N#C/C(=C\c1ccc(O)c(O)c1)C(=O)Nc1ccccc1 [Tyrphostin AG 494]
A: Criterion not met

Q: Field: below-cutoff. Rule: recorded Caspase 3 (efficacy, %) Astrocyte strictly less than 70%. Subject: CN(C)c1ccc(N=NS(=O)(=O)[O-])cc1.[Na+] [Fenaminosulf]
A: Criterion met

Q: Field: below-cutoff. Rule: recorded Caspase 3 (efficacy, %) Astrocyte strictly less than 70%. Subject: OCc1ccc(-c2ccc(-c3ccc(CO)s3)o2)s1 [RITA]
A: Criterion met
